- Test system: YAP/TAZ-TEAD transcription
- RUN DESCRIPTION: Reporter gene assay for measuring the inhibition of YAP/TAZ-TEAD transcription (TEAD-responsive element luciferase reporter in Hek293T cells)
- Type: cell-based
- CONDITION NOTES: Homo sapiens, HEK-293T, 24 h, Hek293T cells transiently transfected with TEAD-responsive element luciferase reporter; 24 hours incubation
pIC50: −log10 of the molar value.
MEASUREMENT NAME: pIC50

CCC(=O)NCC1Cc2ccccc2N(c2ccc(C(F)F)nc2)C1 (stereo not shown) [compound 152] = 4.70 to 6.00
C=CC(=O)NC1Cc2ccccc2N(c2ccc(C(F)(F)F)c(F)c2)C1 (stereo not shown) [compound 028] = > 6.00
C=CC(=O)NCC1Cc2ccccc2N(C2CCCCC2)C1 (stereo not shown) [compound 118] = > 6.00

Lab note: molecule N#CCNC1Cc2ccccc2N(c2ccc(C(F)(F)F)cc2)C1 (stereo not shown) [compound 054] tested on YAP/TAZ-TEAD transcription; recorded pIC50 was 4.70 to 6.00

Lab note: molecule C=CC(=O)NC(C)C1Cc2ccccc2N(c2ccc(C(F)(F)F)cc2)C1 (stereo not shown) [Cpd. No. 192] tested on YAP/TAZ-TEAD transcription; recorded pIC50 was > 6.00

Lab note: molecule C=CC(=O)NC1Cc2ncccc2N(c2ccc(C(F)(F)F)cc2)C1 (stereo not shown) [compound 080] tested on YAP/TAZ-TEAD transcription; recorded pIC50 was > 6.00

----------
Items are presented alongside their recorded IC50.
- Test system: YAP/TAZ-TEAD transcription
- RUN DESCRIPTION: Reporter gene assay for measuring the inhibition of YAP/TAZ-TEAD transcription (TEAD-responsive element luciferase reporter in Hek293T cells)
- Assay type: cell-based
- CONDITION NOTES: Homo sapiens, HEK-293T, 24 h, Hek293T cells transiently transfected with TEAD-responsive element luciferase reporter; 24 hours incubation

# example entries with known answers
C=CC(=O)NC1Cc2ccccc2N(c2ccc(C(F)(F)F)cc2)C1 (stereo not drawn) [compound 001] = < 1000 nM
CC(C)=CC(=O)NC1Cc2ccccc2N(c2ccc(C(F)(F)F)cc2)C1 (stereo not drawn) = 1000 to 20000 nM
C=CC(=O)NCC1Cc2ccccc2N(c2ccc(OC(F)(F)F)cc2)C1 (stereo not drawn) = < 1000 nM
NCC1Cc2ccccc2N(c2ccc(C(F)(F)F)cc2)C1 (stereo not drawn) = 1000 to 20000 nM
C=CC(=O)NC1Cc2ccccc2N(Cc2ccccc2)C1 (stereo not drawn) = < 1000 nM
C=CC(=O)NC1Cc2c(F)cccc2N(c2ccc(C(F)(F)F)cc2)C1 (stereo not drawn) = < 1000 nM

Reported IC50 for CS(=O)(=O)CCNC1Cc2ccccc2N(c2ccc(C(F)(F)F)cc2)C1 (stereo not drawn) was 1000 to 20000 nM

Reported IC50 for C=CC(=O)N(CCOC)CC1Cc2ccccc2N(c2ccc(C(F)(F)F)cc2)C1 (stereo not drawn) was < 1000 nM

Reported IC50 for C=CC(=O)NCC1Cc2ccccc2N(Cc2ccc(C(F)(F)F)cc2)C1 (stereo not drawn) was < 1000 nM

Reported IC50 for C=CS(=O)(=O)NC1Cc2ccccc2N(c2ccc(C(F)(F)F)cc2)C1 (stereo not drawn) was < 1000 nM

Reported IC50 for C=CC(=O)NCC1Cc2ccccc2N(CC2CCCCC2)C1 (stereo not drawn) was < 1000 nM

Reported IC50 for C=CC(=O)NC1Cc2c(C(=O)O)cccc2N(c2ccc(C(F)(F)F)cc2)C1 (stereo not drawn) was < 1000 nM

Reported IC50 for C=CC(=O)NC1Cc2c(C(N)=O)cccc2N(c2ccc(C(F)(F)F)cc2)C1 (stereo not drawn) was < 1000 nM

Reported IC50 for C=CC(=O)NC1Cc2c(CC#N)cccc2N(c2ccc(C(F)(F)F)cc2)C1 (stereo not drawn) was < 1000 nM

Reported IC50 for CN(C)C/C=C/C(=O)NCC1Cc2ccccc2N(c2ccc(C(F)(F)F)cc2)C1 (stereo not drawn) was < 1000 nM

Data provenance is patent US20240025856A1.
